- Tested on: SF-539 CNS
- test protocol: NCI tumour cell line growth inhibition, 48 h
Each entry below lists one item and its recorded TGI value.
endpoint: TGI (µM)

# compound, op, result value
data = [
    ("O=C1CCC(N2C(=O)c3ccc(NS(=O)(=O)c4ccccc4OC(F)(F)F)cc3C2=O)C(=O)N1 (centres undefined)", ">", 100),
    ("NC(N)=Nc1ccc(Oc2cccc(Nc3ccc(Cl)c(C(F)(F)F)c3)c2)cc1", "=", 3.14),
    ("CCN(CC)S(=O)(=O)c1ccc(-c2nc(C(Cl)Cl)nc3cc(C)nn23)cc1", ">", 100),
    ("COc1ccc(Cn2cc3c(c2-c2cc(OC)c(OC)c(OC)c2)CCCc2cnoc2-3)cc1N", "=", 4.32),
]
